- TARGET_OR_TEST_SYSTEM: recombinant human SAE enzyme (Homo sapiens (Human), UniProt Q9UBT2)
- Sequence (Q9UBT2 whole entry): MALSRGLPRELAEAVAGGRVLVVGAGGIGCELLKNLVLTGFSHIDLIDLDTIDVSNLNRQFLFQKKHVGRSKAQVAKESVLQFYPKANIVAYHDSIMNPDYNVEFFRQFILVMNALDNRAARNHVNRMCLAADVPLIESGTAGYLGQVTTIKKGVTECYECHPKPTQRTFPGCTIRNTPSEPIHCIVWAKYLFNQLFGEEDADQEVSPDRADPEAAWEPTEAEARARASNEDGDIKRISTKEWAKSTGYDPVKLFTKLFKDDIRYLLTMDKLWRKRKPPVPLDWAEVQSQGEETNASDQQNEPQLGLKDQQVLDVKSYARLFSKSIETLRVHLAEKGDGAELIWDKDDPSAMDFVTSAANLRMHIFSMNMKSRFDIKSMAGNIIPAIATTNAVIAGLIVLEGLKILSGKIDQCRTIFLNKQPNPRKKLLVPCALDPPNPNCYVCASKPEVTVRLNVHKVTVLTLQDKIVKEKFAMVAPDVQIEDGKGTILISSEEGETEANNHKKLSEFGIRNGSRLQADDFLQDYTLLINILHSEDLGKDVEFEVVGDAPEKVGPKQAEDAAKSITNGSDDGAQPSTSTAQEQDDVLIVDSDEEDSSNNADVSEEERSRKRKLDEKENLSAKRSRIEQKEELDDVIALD
- Sequence (Q9UBE0 whole entry partner): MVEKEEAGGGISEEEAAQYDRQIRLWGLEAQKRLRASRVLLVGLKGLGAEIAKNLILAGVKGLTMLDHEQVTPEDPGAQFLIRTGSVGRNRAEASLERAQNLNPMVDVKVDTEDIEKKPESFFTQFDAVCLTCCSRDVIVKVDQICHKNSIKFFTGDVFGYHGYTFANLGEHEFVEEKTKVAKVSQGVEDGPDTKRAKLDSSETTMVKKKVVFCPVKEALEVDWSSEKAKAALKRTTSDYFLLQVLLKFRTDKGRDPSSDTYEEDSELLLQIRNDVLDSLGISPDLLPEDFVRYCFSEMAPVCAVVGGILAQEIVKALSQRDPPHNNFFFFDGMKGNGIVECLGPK
- ASSAY_DETAILS: SAE HTRF enzyme assay
- Format: biochemical
- EXPERIMENTAL_CONDITIONS: SAE inhibition; class symbols, legend in nM
- Method: Example 215: SAE HTRF enzyme assay The SAE enzymatic reaction totals 50 μl and contains 50 mM HEPES Hemisodium (pH 7.5), 0.05% BSA, 5 mM MgCl2, 0.5 μM ATP, 250 μM GSH, 0.01 μM Ubc9-GST, 0.125 μM Sumo-Flag and 0.11 nM recombinant human SAE enzyme. […] After incubation for 2 hours at 24° C., quantification of FRET is performed on the Pherostar™ (BMG Labtech). Percentage inhibition values at a single concentration or enzyme inhibition (IC50) values are determined from those curves. […]

MOLECULE | TARGET_OR_TEST_SYSTEM | IC50
NS(=O)(=O)OC[C@H]1C[C@@H](Nc2ncncc2C(=O)c2cc([C@@H]3OCc4ccc(Cl)cc43)c(Cl)s2)C[C@@H]1O (single isomer, unassigned) [I-310a] | recombinant human SAE enzyme (Homo sapiens (Human), UniProt Q9UBT2) | 100 to 1000 nM
NS(=O)(=O)OC[C@H]1C[C@@H](Nc2ncncc2C(=O)c2ccc([C@@H]3OCCc4c(Cl)cccc43)s2)C[C@@H]1O (mixture of isomers) | recombinant human SAE enzyme (Homo sapiens (Human), UniProt Q9UBT2) | 10 to 100 nM
Cc1sc(C(=O)c2cncnc2N[C@@H]2C[C@H](COS(N)(=O)=O)[C@@H](O)C2)cc1[C@H]1OCOc2ccccc21 (mixture of isomers) | recombinant human SAE enzyme (Homo sapiens (Human), UniProt Q9UBT2) | < 10 nM
N#Cc1sc(C(=O)c2cncnc2N[C@@H]2C[C@H](COS(N)(=O)=O)[C@@H](O)C2)cc1[C@@H]1OCCc2ccccc21 (mixture of isomers) | recombinant human SAE enzyme (Homo sapiens (Human), UniProt Q9UBT2) | 10 to 100 nM
NS(=O)(=O)OC[C@H]1C[C@@H](Nc2ncncc2C(=O)c2cc([C@@H]3OCC(F)(F)c4ccccc43)cs2)C[C@@H]1O (single isomer, unassigned) [I-293a] | recombinant human SAE enzyme (Homo sapiens (Human), UniProt Q9UBT2) | 10 to 100 nM
Cc1sc(C(=O)c2cncnc2N[C@@H]2C[C@H](COS(N)(=O)=O)[C@@H](O)C2)nc1Cc1cccc(Cl)c1 | recombinant human SAE enzyme (Homo sapiens (Human), UniProt Q9UBT2) | < 10 nM

====

- TARGET_OR_TEST_SYSTEM: recombinant human SAE enzyme (Homo sapiens (Human))
- ASSAY_DETAILS: SAE HTRF enzyme assay
- Type: biochemical
- EXPERIMENTAL_CONDITIONS: SAE inhibition at compound concentration 0.111 μM
- Protocol: Example 215: SAE HTRF enzyme assay The SAE enzymatic reaction totals 50 μl and contains 50 mM HEPES Hemisodium (pH 7.5), 0.05% BSA, 5 mM MgCl2, 0.5 μM ATP, 250 μM GSH, 0.01 μM Ubc9-GST, 0.125 μM Sumo-Flag and 0.11 nM recombinant human SAE enzyme. […] After incubation for 2 hours at 24° C., quantification of FRET is performed on the Pherostar™ (BMG Labtech). Percentage inhibition values at a single concentration or enzyme inhibition (IC50) values are determined from those curves. […]
Let's look at some compounds and their measured Percent Inhibition.

COMPOUND | READOUT_UNIT | Percent Inhibition
Cc1sc(C(=O)c2cncnc2N[C@@H]2C[C@H](COS(N)(=O)=O)[C@@H](O)C2)cc1[C@@H]1OCCn2c(C)cnc21 (mixture of isomers) [I-296] | % | 98
Cc1nc2c(s1)CCO[C@H]2c1cc(C(=O)c2cncnc2N[C@@H]2C[C@H](COS(N)(=O)=O)[C@@H](O)C2)sc1C (single isomer, unassigned) [I-287a] | % | 9
Cc1sc(C(=O)c2cncnc2N[C@@H]2C[C@H](COS(N)(=O)=O)[C@@H](O)C2)cc1[C@@H]1c2cc(Cl)ccc2CCN1C [I-306] | % | 98
Cc1sc(C(=O)c2cncnc2N[C@@H]2C[C@H](COS(N)(=O)=O)[C@@H](O)C2)cc1[C@@H]1OCCn2cc(C(F)(F)F)nc21 (mixture of isomers) [I-337] | % | 89
Cc1sc(C(=O)c2cncnc2N[C@@H]2C[C@H](COS(N)(=O)=O)[C@@H](O)C2)cc1[C@@H]1OCOc2ccccc21 (single isomer, unassigned) [I-280a] | % | 75
NS(=O)(=O)OC[C@H]1C[C@@H](Nc2ncncc2C(=O)c2cc([C@@H]3OCCCc4ccc(Cl)cc43)cs2)C[C@@H]1O (mixture of isomers) [I-314] | % | 95
Cc1sc(C(=O)c2cncnc2N[C@@H]2C[C@H](COS(N)(=O)=O)[C@@H](O)C2)cc1[C@@H]1OCCc2ccc(Cl)nc21 (mixture of isomers) [I-286] | % | 99
NS(=O)(=O)OC[C@H]1C[C@@H](Nc2ncncc2C(=O)c2cc([C@@H]3OCCCc4ccc(Cl)cc43)cs2)C[C@@H]1O (single isomer, unassigned) [I-314a] | % | 49
Cc1sc(C(=O)c2cncnc2N[C@@H]2C[C@H](COS(N)(=O)=O)[C@@H](O)C2)cc1[C@@H]1OCCc2cnc(Cl)cc21 (mixture of isomers) [I-316] | % | 94
NS(=O)(=O)OC[C@H]1C[C@@H](Nc2ncncc2C(=O)c2cc([C@@H]3CCCc4ccc(Cl)cc43)cs2)C[C@@H]1O (single isomer, unassigned) [I-335a] | % | 14
CN1CCc2ccc(Cl)cc2[C@@H]1c1csc(C(=O)c2cncnc2N[C@@H]2C[C@H](COS(N)(=O)=O)[C@@H](O)C2)c1 (single isomer, unassigned) [I-307a] | % | 45

====

Known Percent Inhibition of a selection of molecules
- TARGET_OR_TEST_SYSTEM: recombinant human SAE enzyme (Homo sapiens (Human))
- ASSAY_DETAILS: SAE HTRF enzyme assay
- Type: biochemical
- EXPERIMENTAL_CONDITIONS: SAE inhibition at compound concentration 0.111 μM
ENDPOINT_LABEL: Percent Inhibition (%)

MOLECULE | READOUT_UNIT | REPORTED
NS(=O)(=O)OC[C@H]1C[C@@H](Nc2ncncc2C(=O)c2cc([C@H]3NCCc4ccccc43)cs2)[C@H](O)[C@@H]1O (mixture of isomers) | % | 99
NS(=O)(=O)OC[C@H]1C[C@@H](Nc2ncncc2C(=O)c2cc([C@@H]3CCCc4ccc(Cl)cc43)cs2)C[C@@H]1O (single isomer, unassigned) [I-335b] | % | 41
NS(=O)(=O)OC[C@H]1C[C@@H](Nc2ncncc2C(=O)c2cc(C3SCCc4ccc(Cl)cc43)cs2)C[C@@H]1O (single isomer, unassigned) [I-320b] | % | 93
CC(C)(C)OC(=O)N1CCc2ccc(Cl)cc2[C@@H]1c1csc(C(=O)c2cncnc2N[C@@H]2C[C@H](COS(N)(=O)=O)[C@@H](O)C2)c1.CC(C)(C)OC(=O)N1CCc2ccc(Cl)cc2[C@H]1c1csc(C(=O)c2cncnc2N[C@@H]2C[C@H](COS(N)(=O)=O)[C@@H](O)C2)c1 (mixture of isomers) | % | 10
Cc1sc(C(=O)c2cncnc2N[C@@H]2C[C@H](COS(N)(=O)=O)[C@@H](O)C2)cc1[C@@H]1OCCc2ccc(Cl)nc21 (single isomer, unassigned) [I-286b] | % | 99
NS(=O)(=O)OCC1CC(Nc2ncncc2C(=O)c2cc(C3OCCc4ccc(Cl)cc43)c(Cl)s2)CC1O (mixture of isomers) | % | 100
Cc1sc(C(=O)c2cncnc2N[C@@H]2C[C@H](COS(N)(=O)=O)[C@@H](O)C2)cc1C1OCCc2ccc(C(F)(F)F)nc21 (single isomer, unassigned) [I-297a] | % | 31
Cc1sc(C(=O)c2cncnc2N[C@@H]2C[C@H](COS(N)(=O)=O)[C@@H](O)C2)cc1[C@@H]1OCCc2ccc(CN(C)C)cc21 (mixture of isomers) | % | 36
Cc1sc(C(=O)c2cncnc2N[C@@H]2C[C@H](COS(N)(=O)=O)[C@@H](O)C2)cc1[C@@H]1OCCc2cccnc21 (mixture of isomers) [I-285] | % | 100
NS(=O)(=O)OC[C@H]1C[C@@H](Nc2ncncc2C(=O)c2cc([C@@H]3NCCc4ccc(Cl)cc43)c(Cl)o2)C[C@@H]1O (single isomer, unassigned) [I-299a] | % | 101

====

- TARGET_OR_TEST_SYSTEM: recombinant human SAE enzyme (Homo sapiens (Human))
- ASSAY_DETAILS: SAE HTRF enzyme assay
- Format: biochemical
- EXPERIMENTAL_CONDITIONS: SAE inhibition; class symbols, legend in nM
Collected IC50 values appear next to each entry.

COMPOUND | TARGET_OR_TEST_SYSTEM | IC50
Cc1sc(C(=O)c2cncnc2N[C@@H]2C[C@H](COS(N)(=O)=O)[C@@H](O)C2)cc1[C@@H]1OCCc2cccnc21 (single isomer, unassigned) [I-285b] | recombinant human SAE enzyme (Homo sapiens (Human)) | 100 to 1000 nM
Cc1cnn2c1[C@H](c1csc(C(=O)c3cncnc3N[C@@H]3C[C@H](COS(N)(=O)=O)[C@@H](O)C3)c1)OCC2 (mixture of isomers) [I-333] | recombinant human SAE enzyme (Homo sapiens (Human)) | 100 to 1000 nM
NS(=O)(=O)OC[C@H]1C[C@@H](Nc2ncncc2C(=O)c2cc([C@@H]3OCCc4cnc(Cl)cc43)c(Cl)s2)C[C@@H]1O (mixture of isomers) [I-323] | recombinant human SAE enzyme (Homo sapiens (Human)) | 10 to 100 nM
NS(=O)(=O)OC[C@H]1C[C@@H](Nc2ncncc2C(=O)c2cc(C3SCCc4ccc(Cl)cc43)cs2)C[C@@H]1O (single isomer, unassigned) [I-320b] | recombinant human SAE enzyme (Homo sapiens (Human)) | < 10 nM
Cc1cn2c(n1)[C@H](c1cc(C(=O)c3cncnc3N[C@@H]3C[C@H](COS(N)(=O)=O)[C@@H](O)C3)sc1C)OCC2 (mixture of isomers) [I-309] | recombinant human SAE enzyme (Homo sapiens (Human)) | < 10 nM
Cc1sc(C(=O)c2cncnc2N[C@@H]2C[C@H](COS(N)(=O)=O)[C@@H](O)C2)cc1C1=NCCc2ccc(Cl)cc21 [I-360] | recombinant human SAE enzyme (Homo sapiens (Human)) | < 10 nM
NS(=O)(=O)OC[C@H]1C[C@@H](Nc2ncncc2C(=O)c2cc([C@@H]3OCC(F)(F)c4ccc(Cl)cc43)cs2)C[C@@H]1O (single isomer, unassigned) [I-289b] | recombinant human SAE enzyme (Homo sapiens (Human)) | < 10 nM
COc1ccc2c(c1)[C@H](c1cc(C(=O)c3cncnc3N[C@@H]3C[C@H](COS(N)(=O)=O)[C@@H](O)C3)sc1C)OCC2 (mixture of isomers) [I-341] | recombinant human SAE enzyme (Homo sapiens (Human)) | 100 to 1000 nM
NS(=O)(=O)OC[C@H]1C[C@@H](Nc2ncncc2C(=O)c2cc([C@@H]3OCCc4cc(F)c(F)cc43)c(Cl)s2)C[C@@H]1O (single isomer, unassigned) [I-290a] | recombinant human SAE enzyme (Homo sapiens (Human)) | 10 to 100 nM
NS(=O)(=O)OC[C@H]1C[C@@H](Nc2ncncc2C(=O)c2cc([C@H]3OCCc4c(Cl)cccc43)cs2)C[C@@H]1O (mixture of isomers) [I-301] | recombinant human SAE enzyme (Homo sapiens (Human)) | < 10 nM
CN1CCc2ccc(Cl)cc2[C@@H]1c1cc(C(=O)c2cncnc2N[C@@H]2C[C@H](COS(N)(=O)=O)[C@@H](O)C2)sc1Cl (single isomer, unassigned) [I-311a] | recombinant human SAE enzyme (Homo sapiens (Human)) | 10 to 100 nM
Cc1ccc2c(n1)C(c1cc(C(=O)c3cncnc3N[C@@H]3C[C@H](COS(N)(=O)=O)[C@@H](O)C3)sc1C)OCC2 (single isomer, unassigned) [I-291a] | recombinant human SAE enzyme (Homo sapiens (Human)) | 100 to 1000 nM
Cc1nc2n(c1C)CCO[C@@H]2c1cc(C(=O)c2cncnc2N[C@@H]2C[C@H](COS(N)(=O)=O)[C@@H](O)C2)sc1C (single isomer, unassigned) [I-356a] | recombinant human SAE enzyme (Homo sapiens (Human)) | 10 to 100 nM
NS(=O)(=O)OC[C@H]1C[C@@H](Nc2ncncc2C(=O)c2cc([C@@H]3OCCc4cc(Cl)ccc43)cs2)C[C@@H]1O [I-357] | recombinant human SAE enzyme (Homo sapiens (Human)) | < 10 nM
NS(=O)(=O)OC[C@H]1C[C@@H](Nc2ncncc2C(=O)c2cc([C@@H]3OCC(=O)c4ccccc43)cs2)C[C@@H]1O (mixture of isomers) [I-342] | recombinant human SAE enzyme (Homo sapiens (Human)) | < 10 nM
Cc1sc(C(=O)c2cncnc2N[C@@H]2C[C@H](COS(N)(=O)=O)[C@@H](O)C2)cc1[C@@H]1OCOc2ccccc21 (single isomer, unassigned) [I-280a] | recombinant human SAE enzyme (Homo sapiens (Human)) | 10 to 100 nM
NS(=O)(=O)OC[C@H]1C[C@@H](Nc2ncncc2C(=O)c2cc([C@@H]3OCC(F)(F)c4ccccc43)cs2)C[C@@H]1O (mixture of isomers) [I-293] | recombinant human SAE enzyme (Homo sapiens (Human)) | < 10 nM
Cc1sc(C(=O)c2cncnc2N[C@@H]2C[C@H](COS(N)(=O)=O)[C@@H](O)C2)nc1[C@H](O)c1cccc(Cl)c1 (single isomer, unassigned) [I-355b] | recombinant human SAE enzyme (Homo sapiens (Human)) | 10 to 100 nM
Cc1sc(C(=O)c2cncnc2N[C@@H]2C[C@H](COS(N)(=O)=O)[C@@H](O)C2)cc1C1OCCc2ccc(C(F)(F)F)nc21 (single isomer, unassigned) [I-297b] | recombinant human SAE enzyme (Homo sapiens (Human)) | < 10 nM
NS(=O)(=O)OC[C@H]1C[C@@H](Nc2ncncc2C(=O)c2cc([C@@H]3NCCc4ccccc43)cs2)C[C@@H]1O (single isomer, unassigned) [I-283b] | recombinant human SAE enzyme (Homo sapiens (Human)) | 10 to 100 nM
NS(=O)(=O)OC[C@H]1C[C@@H](Nc2ncncc2C(=O)c2cc([C@H]3OCCc4cccc(Cl)c43)cs2)C[C@@H]1O [I-365] | recombinant human SAE enzyme (Homo sapiens (Human)) | 10 to 100 nM
Cc1sc(C(=O)c2cncnc2N[C@@H]2C[C@H](COS(N)(=O)=O)[C@@H](O)C2)cc1[C@@H]1OCCc2ccc(CN(C)C)cc21 (mixture of isomers) [I-329] | recombinant human SAE enzyme (Homo sapiens (Human)) | 100 to 1000 nM
